- Tested on: ATP;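 further: ATP exposure 15 min at 22 °C before imaging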
- procedure.summary: switch fluorescence ratio, 500 uM ATP over buffer (Cy3 cluster intensity, sum of 5 cycles each) (fold (ratio)); higher = stronger signal-on switching upon ATP binding; sequences stand for … in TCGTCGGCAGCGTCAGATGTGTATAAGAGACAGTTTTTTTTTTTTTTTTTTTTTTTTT…TC
- experimental.setup: aptamer strand: ATP DNA aptamer (quencher-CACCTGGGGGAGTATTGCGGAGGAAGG + anchor), 100 nM annealed; ATP concentration: 500 uM
measured.property: switch fluorescence ratio
Would you mind answering with just the numeric figure?

q: Given GCTATCGAGT , state its recorded switch fluorescence ratio.
a: 1.01

q: And for TTATGTATGC ?
a: 0.95

q: Now consider AGGGGTTATA and answer again.
a: 1.01

q: What do you get for GTTGCCTTCA ?
a: 1.14

q: Check GGGAAACCGG too.
a: 1.06

q: One more sequence: GATTCTTTTC
a: 0.991

q: TGATGTGAAA ?
a: 0.977

q: Request: ATGGTTTCGT
a: 0.996

q: Follow-up entry: GTTACAAGCG
a: 0.994

q: Further, for TGAGTTGTTT ?
a: 0.985

Where these numbers come from: the supplement of paper PMC10126150
